Reference for the values: BigSolDB 2.1

Measurement Parameters: in toluene, 323.15 K
Measure: solubility (mole fraction)

{"Item Smiles": "Cc1nc2n(c(=O)c1CCN1CCC(c3noc4cc(F)ccc34)CC1)CCCC2", "Measure": "solubility (mole fraction)", "Value": 0.0167}

* * *

Measurement Parameters: in methanol, 283.15 K
Measure: solubility (mole fraction)

{"Item Smiles": "Cc1nc2n(c(=O)c1CCN1CCC(c3noc4cc(F)ccc34)CC1)CCCC2", "Value": 0.0023}

* * *

Measurement Parameters: in isopropanol, 293.15 K
Measure: solubility (mole fraction)

{"Item Smiles": "Cc1nc2n(c(=O)c1CCN1CCC(c3noc4cc(F)ccc34)CC1)CCCC2", "Measure": "solubility (mole fraction)", "Value": 0.0007}
